// data source = the RNAGym collection of RNA variant scans (doi:10.1126/science.aae0568)

B1: tRNA (parent)
chain: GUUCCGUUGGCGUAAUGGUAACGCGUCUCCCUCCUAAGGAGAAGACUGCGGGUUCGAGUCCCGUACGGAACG

Variants of: B1
METHOD: yeast fitness relative to wild type (ratio to wild type); higher = fitter; tRNA-Arg(CCU), competitive growth, 37 C, YPD
Fewer inactive variants are shown than the library holds.
Give yeast fitness for every item shown.

Example entries begin here.
- U3A A20U A45U G58C G67C: ≤ 0.5
- A21U C22U C30G U59G A65U: ≤ 0.5
- C24U A36G C55G: ≤ 0.5
- C5U U32C A42G: 0.531

We next turn to a different variant, shown below.
Task: Which value of yeast fitness has been reported for U28A C60G C66G A69G in the records?
Result: ≤ 0.5
